# experimental.system: hAChE (human AChE) (Homo sapiens, UniProt P22303)
# Sequence (P22303 32-614): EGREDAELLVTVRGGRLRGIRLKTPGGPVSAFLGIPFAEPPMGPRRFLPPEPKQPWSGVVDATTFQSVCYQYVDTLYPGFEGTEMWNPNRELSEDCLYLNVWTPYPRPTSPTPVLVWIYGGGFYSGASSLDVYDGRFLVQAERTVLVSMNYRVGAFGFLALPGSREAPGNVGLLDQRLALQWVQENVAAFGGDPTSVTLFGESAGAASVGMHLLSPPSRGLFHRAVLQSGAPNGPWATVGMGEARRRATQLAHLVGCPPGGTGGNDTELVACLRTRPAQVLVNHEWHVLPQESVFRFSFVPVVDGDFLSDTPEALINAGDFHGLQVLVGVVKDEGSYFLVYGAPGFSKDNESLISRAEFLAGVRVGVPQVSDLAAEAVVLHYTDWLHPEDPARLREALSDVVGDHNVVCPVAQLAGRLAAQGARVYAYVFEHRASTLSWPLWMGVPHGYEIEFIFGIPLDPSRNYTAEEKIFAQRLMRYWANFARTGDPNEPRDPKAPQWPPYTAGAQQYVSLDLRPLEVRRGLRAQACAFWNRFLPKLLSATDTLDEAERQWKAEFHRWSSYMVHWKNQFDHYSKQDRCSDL
# test.name: Inhibition of hAChE
# Assay type: biochemical
# assay.setup: read-out: hAChE RA (residual activity) at 10 μM
property.label: remaining activity at 10 µM (%)

>>> value_reported("CC(=O)c1ccc(-c2cnn3c(C(F)(F)F)cc(=O)[nH]c23)cc1 [Compound 5i]")
90
>>> value_reported("O=c1cc(C(F)(F)F)n2ncc(-c3ccc4c(c3)OCCO4)c2[nH]1 [Compound 5h]")
91
>>> value_reported("COc1ccc(-c2cnn3c(C(F)(F)F)cc(=O)[nH]c23)cc1 [Compound 5a]")
93
>>> value_reported("COc1cccc(-c2cnn3c(C(F)(F)F)cc(=O)[nH]c23)c1 [Compound 5f]")
91

* * *

# experimental.system: UniProtKB P22303
# test.name: Inhibition of hAChE
# Format: biochemical
# assay.setup: read-out: hAChE RA (residual activity) at 100 μM
property.label: remaining activity at 100 µM (%)

>>> value_reported("COc1ccc(-c2cnn3c(C(F)(F)F)cc(=O)[nH]c23)cc1")
86
>>> value_reported("O=c1cc(C(F)(F)F)n2ncc(-c3ccc4c(c3)OCCO4)c2[nH]1")
86
>>> value_reported("CC(=O)c1ccc(-c2cnn3c(C(F)(F)F)cc(=O)[nH]c23)cc1")
91
>>> value_reported("COc1cccc(-c2cnn3c(C(F)(F)F)cc(=O)[nH]c23)c1")
88

* * *

Measured pIC50, listed per entry.
# experimental.system: hMAO-B (human MAO-B) (Homo sapiens, UniProt P27338)
# Sequence (P27338 1-520): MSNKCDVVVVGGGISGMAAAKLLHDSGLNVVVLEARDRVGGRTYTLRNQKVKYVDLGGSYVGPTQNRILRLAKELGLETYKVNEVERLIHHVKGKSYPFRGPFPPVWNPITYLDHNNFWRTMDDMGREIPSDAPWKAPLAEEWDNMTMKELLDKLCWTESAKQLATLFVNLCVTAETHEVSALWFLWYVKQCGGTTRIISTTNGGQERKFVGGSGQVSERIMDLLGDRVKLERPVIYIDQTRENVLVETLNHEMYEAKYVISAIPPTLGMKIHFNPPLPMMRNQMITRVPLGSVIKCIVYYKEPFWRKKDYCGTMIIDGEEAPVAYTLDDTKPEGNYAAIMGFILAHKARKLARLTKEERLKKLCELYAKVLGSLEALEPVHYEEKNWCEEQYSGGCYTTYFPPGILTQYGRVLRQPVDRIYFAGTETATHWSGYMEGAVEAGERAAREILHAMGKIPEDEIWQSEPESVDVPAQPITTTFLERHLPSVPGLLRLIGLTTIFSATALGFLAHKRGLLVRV
pIC50: −log10 of the molar value.
property.label: pIC50

>>> value_reported("CC(=O)c1ccc(-c2cnn3c(C(F)(F)F)cc(=O)[nH]c23)cc1")
4.58
>>> value_reported("COc1cccc(-c2cnn3c(C(F)(F)F)cc(=O)[nH]c23)c1")
4.00
>>> value_reported("O=c1cc(C(F)(F)F)n2ncc(-c3ccc4c(c3)OCCO4)c2[nH]1")
5.27
>>> value_reported("COc1ccc(-c2cnn3c(C(F)(F)F)cc(=O)[nH]c23)cc1")
4.46

* * *

# experimental.system: UniProtKB P27338
# test.name: Inhibition of hMAO-B
# Assay type: biochemical
# assay.setup: read-out: hMAO-B RA (residual activity) at 100 μM
property.label: remaining activity at 100 µM

>>> value_reported("COc1ccc(-c2cnn3c(C(F)(F)F)cc(=O)[nH]c23)cc1")
"26%"
>>> value_reported("O=c1cc(C(F)(F)F)n2ncc(-c3ccc4c(c3)OCCO4)c2[nH]1")
"8%"
>>> value_reported("CC(=O)c1ccc(-c2cnn3c(C(F)(F)F)cc(=O)[nH]c23)cc1")
"21%"
>>> value_reported("COc1cccc(-c2cnn3c(C(F)(F)F)cc(=O)[nH]c23)c1")
"40%"

* * *

# experimental.system: hMAO-A (human MAO-A) (Homo sapiens, UniProt P21397)
# test.name: Inhibition of hMAO-A
# assay.setup: read-out: hMAO-A RA (residual activity) at 100 μM
property.label: remaining activity at 100 µM (%)

>>> value_reported("COc1cccc(-c2cnn3c(C(F)(F)F)cc(=O)[nH]c23)c1 [Compound 5f]")
97
>>> value_reported("COc1ccc(-c2cnn3c(C(F)(F)F)cc(=O)[nH]c23)cc1 [Compound 5a]")
99
>>> value_reported("O=c1cc(C(F)(F)F)n2ncc(-c3ccc4c(c3)OCCO4)c2[nH]1 [Compound 5h]")
95
>>> value_reported("CC(=O)c1ccc(-c2cnn3c(C(F)(F)F)cc(=O)[nH]c23)cc1 [Compound 5i]")
98

* * *

# experimental.system: hMAO-B (human MAO-B) (Homo sapiens, UniProt P27338)
# test.name: Inhibition of hMAO-B
# Assay type: biochemical
# assay.setup: read-out: hMAO-B RA (residual activity) at 10 μM
Recorded remaining activity at 10 µM for the following compounds
property.label: remaining activity at 10 µM (%)

>>> value_reported("COc1cccc(-c2cnn3c(C(F)(F)F)cc(=O)[nH]c23)c1")
80
>>> value_reported("COc1ccc(-c2cnn3c(C(F)(F)F)cc(=O)[nH]c23)cc1")
73
>>> value_reported("CC(=O)c1ccc(-c2cnn3c(C(F)(F)F)cc(=O)[nH]c23)cc1")
75
>>> value_reported("O=c1cc(C(F)(F)F)n2ncc(-c3ccc4c(c3)OCCO4)c2[nH]1")
36

* * *

# experimental.system: hBChE (human BChE) (Homo sapiens)
# test.name: Inhibition of hBChE
# Type: biochemical
# assay.setup: read-out: hBChE RA (residual activity) at 100 μM
property.label: remaining activity at 100 µM

>>> value_reported("CC(=O)c1ccc(-c2cnn3c(C(F)(F)F)cc(=O)[nH]c23)cc1")
"99%"
>>> value_reported("O=c1cc(C(F)(F)F)n2ncc(-c3ccc4c(c3)OCCO4)c2[nH]1")
"95%"
>>> value_reported("COc1ccc(-c2cnn3c(C(F)(F)F)cc(=O)[nH]c23)cc1")
"103%"
>>> value_reported("COc1cccc(-c2cnn3c(C(F)(F)F)cc(=O)[nH]c23)c1")
"95%"

* * *

# experimental.system: hMAO-A (human MAO-A) (Homo sapiens)
# Sequence (P21397 1-527): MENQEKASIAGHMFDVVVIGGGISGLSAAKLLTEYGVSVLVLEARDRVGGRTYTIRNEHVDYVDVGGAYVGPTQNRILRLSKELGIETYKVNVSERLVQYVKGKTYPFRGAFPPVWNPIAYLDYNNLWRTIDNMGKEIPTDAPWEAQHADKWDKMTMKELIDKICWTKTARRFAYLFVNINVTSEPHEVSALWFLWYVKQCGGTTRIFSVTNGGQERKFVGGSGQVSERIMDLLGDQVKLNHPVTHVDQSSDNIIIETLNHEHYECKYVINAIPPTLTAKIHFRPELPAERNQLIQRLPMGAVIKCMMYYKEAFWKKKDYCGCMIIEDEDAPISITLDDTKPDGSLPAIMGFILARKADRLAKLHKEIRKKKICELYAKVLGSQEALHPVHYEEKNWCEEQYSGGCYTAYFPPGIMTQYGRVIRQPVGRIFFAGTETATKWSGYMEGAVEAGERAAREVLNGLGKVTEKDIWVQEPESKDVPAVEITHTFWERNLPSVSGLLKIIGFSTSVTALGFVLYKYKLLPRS
# test.name: Inhibition of hMAO-A
# assay.setup: read-out: hMAO-A RA (residual activity) at 10 μM
property.label: remaining activity at 10 µM (%)

>>> value_reported("COc1ccc(-c2cnn3c(C(F)(F)F)cc(=O)[nH]c23)cc1")
95
>>> value_reported("COc1cccc(-c2cnn3c(C(F)(F)F)cc(=O)[nH]c23)c1")
92
>>> value_reported("O=c1cc(C(F)(F)F)n2ncc(-c3ccc4c(c3)OCCO4)c2[nH]1")
110
>>> value_reported("CC(=O)c1ccc(-c2cnn3c(C(F)(F)F)cc(=O)[nH]c23)cc1")
100

* * *

# experimental.system: hBChE (human BChE) (Homo sapiens, UniProt P06276)
# Sequence (P06276 29-602): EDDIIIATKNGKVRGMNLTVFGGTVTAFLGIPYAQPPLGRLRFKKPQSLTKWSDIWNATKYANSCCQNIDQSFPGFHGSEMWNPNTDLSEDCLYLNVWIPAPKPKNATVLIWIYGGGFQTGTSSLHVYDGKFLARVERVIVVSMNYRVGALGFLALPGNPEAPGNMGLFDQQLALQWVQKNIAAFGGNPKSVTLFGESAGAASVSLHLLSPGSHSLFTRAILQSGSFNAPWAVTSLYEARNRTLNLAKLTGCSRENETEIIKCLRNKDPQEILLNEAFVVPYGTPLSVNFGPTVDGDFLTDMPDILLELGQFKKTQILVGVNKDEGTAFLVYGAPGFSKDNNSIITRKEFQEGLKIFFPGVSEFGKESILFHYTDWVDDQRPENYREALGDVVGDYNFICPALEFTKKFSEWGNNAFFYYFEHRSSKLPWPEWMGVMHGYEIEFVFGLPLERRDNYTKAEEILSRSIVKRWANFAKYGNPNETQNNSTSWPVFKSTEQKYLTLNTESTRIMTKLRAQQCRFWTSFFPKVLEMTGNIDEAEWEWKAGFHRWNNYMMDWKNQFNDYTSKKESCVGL
# test.name: Inhibition of hBChE
# Assay type: biochemical
# assay.setup: read-out: hBChE RA (residual activity) at 10 μM
property.label: remaining activity at 10 µM (%)

>>> value_reported("CC(=O)c1ccc(-c2cnn3c(C(F)(F)F)cc(=O)[nH]c23)cc1 [Compound 5i]")
91
>>> value_reported("COc1cccc(-c2cnn3c(C(F)(F)F)cc(=O)[nH]c23)c1 [Compound 5f]")
97
>>> value_reported("O=c1cc(C(F)(F)F)n2ncc(-c3ccc4c(c3)OCCO4)c2[nH]1 [Compound 5h]")
94
>>> value_reported("COc1ccc(-c2cnn3c(C(F)(F)F)cc(=O)[nH]c23)cc1 [Compound 5a]")
90
